Listing: TGI of selected compounds
Test system: EKVX NSCLC
Assay: NCI tumour cell line growth inhibition, 48 h

[Q] Look at this compound and give its reported TGI. C/C=C/[P+](c1ccccc1)(c1ccccc1)c1ccccc1
[A] 13.5 µM

[Q] And for COC(=O)C(Cc1ccccc1)NC(=O)NC(=O)NC(=O)CI (stereo unspecified) ?
[A] 25.3 µM

Continuing:
[Q] Using the record for C=CC(=O)Nc1cccc(C)c1Nc1cc(-c2cccnc2Cc2c(C)c(OC)cc(OC)c2C)ncn1 , report its TGI.
[A] > 100 µM

[Q] Another: Cc1ccc(-c2nc3ccc(Cl)cc3[nH]2)cc1
[A] > 100 µM
